target: Cysteinyl leukotriene receptor (Cavia porcellus); test: Inhibition of LTD4-induced contraction in guinea pig ileum
ENDPOINT_LABEL: -Log IC50
Just the number, please, no unit attached.

Solved entries (count: 4):
[
  {
    "STRUCTURE_SMILES_STRING": "CCCc1c(CSCc2ccc(-c3nn[nH]n3)cc2)ccc(C(C)=O)c1O",
    "ASSAY_RESULT": 6.5
  },
  {
    "STRUCTURE_SMILES_STRING": "CC(=O)c1ccc(COc2ccc(-c3nn[nH]n3)cc2)c(C)c1O",
    "ASSAY_RESULT": 7
  },
  {
    "STRUCTURE_SMILES_STRING": "CCCc1c(COc2ccc(Cc3nnn(C)n3)cc2)ccc(C(C)=O)c1O",
    "ASSAY_RESULT": 6.2
  },
  {
    "STRUCTURE_SMILES_STRING": "CC(=O)c1ccc(COc2ccc(Cc3nnn[nH]3)cc2)c(CC(C)C)c1O",
    "ASSAY_RESULT": 7.7
  }
]

Please examine the following record next.
Q) Identify measured -Log IC50 corresponding to `CCCc1c(COc2ccc(Cc3nnn[nH]3)cc2)ccc(C(C)=O)c1O`
A) 8

* * *

Listed below: -Log IC50 values for each entry.
target: Cysteinyl leukotriene receptor (Cavia porcellus); test: Inhibition of LTD4-induced contraction in guinea pig ileum
Just the number, please, no unit attached.

Solved entries (count: 5):
[
  {
    "COMPOUND": "CCCc1c(COc2ccc(-c3nn[nH]n3)cc2)ccc(C=O)c1O",
    "SYSTEM_UNDER_TEST": "Cysteinyl leukotriene receptor (Cavia porcellus)",
    "ASSAY_RESULT": 6.4
  },
  {
    "COMPOUND": "CCCc1c(CSc2ccc(-c3nn[nH]n3)cc2)ccc(C(C)=O)c1O",
    "SYSTEM_UNDER_TEST": "Cysteinyl leukotriene receptor (Cavia porcellus)",
    "ASSAY_RESULT": 7.7
  },
  {
    "COMPOUND": "CCCc1c(OCc2ccc(-c3nn[nH]n3)cc2)ccc(C(C)=O)c1O",
    "SYSTEM_UNDER_TEST": "Cysteinyl leukotriene receptor (Cavia porcellus)",
    "ASSAY_RESULT": 7
  },
  {
    "COMPOUND": "CCc1c(COc2ccc(Cc3nnn[nH]3)cc2)ccc(C(C)=O)c1O",
    "SYSTEM_UNDER_TEST": "Cysteinyl leukotriene receptor (Cavia porcellus)",
    "ASSAY_RESULT": 7.9
  },
  {
    "COMPOUND": "CCCc1c(COc2ccc(Cc3nnn[nH]3)cc2)ccc(/C(C)=N\\O)c1O",
    "SYSTEM_UNDER_TEST": "Cysteinyl leukotriene receptor (Cavia porcellus)",
    "ASSAY_RESULT": 5.8
  }
]

Q) Identify measured -Log IC50 corresponding to `CCCc1c(COc2ccc(Cc3nnn[nH]3)cc2)ccc(C(C)=O)c1OC`
A) 6.3

Q) Identify measured -Log IC50 corresponding to `CCCc1c(COc2ccc(OCc3nn[nH]n3)cc2)ccc(C(C)=O)c1O`
A) 7.8

Q) Identify measured -Log IC50 corresponding to `CCCc1c(COc2ccc(-c3nn[nH]n3)cc2)ccc(C(C)=O)c1O`
A) 8

Q) Identify measured -Log IC50 corresponding to `CCCc1c(CNc2ccc(Cc3nnn[nH]3)cc2)ccc(C(C)=O)c1O`
A) 7.5

Q) Identify measured -Log IC50 corresponding to `CCCCc1c(COc2ccc(Cc3nnn[nH]3)cc2)ccc(C(C)=O)c1O`
A) 7.8

Q) Identify measured -Log IC50 corresponding to `CCCc1c(COc2ccc(CCc3nnn[nH]3)cc2)ccc(C(C)=O)c1O`
A) 8.1

* * *

Listed below: -Log IC50 values for each entry.
molecular target: Cysteinyl leukotriene receptor (Cavia porcellus); test: Inhibition of LTD4-induced contraction in guinea pig ileum

Q) Identify measured -Log IC50 corresponding to CCCc1c(COc2ccc(C(C)c3nnn[nH]3)cc2)ccc(C(C)=O)c1O (stereo unspecified)
A) 7.9

Q) Identify measured -Log IC50 corresponding to `CCc1c(COc2ccc(-c3nn[nH]n3)cc2)ccc(C(C)=O)c1O`
A) 7.9

* * *

Listed below: -Log IC50 values for each entry.
target: Cysteinyl leukotriene receptor (Cavia porcellus); test: Inhibition of LTD4-induced contraction in guinea pig ileum
Just the number, please, no unit attached.

Solved entries (count: 8):
[
  {
    "STRUCTURE_SMILES_STRING": "CCCCc1c(COc2ccc(-c3nn[nH]n3)cc2)ccc(C(C)=O)c1O",
    "SYSTEM_UNDER_TEST": "Cysteinyl leukotriene receptor (Cavia porcellus)",
    "-Log IC50": 7.9
  },
  {
    "STRUCTURE_SMILES_STRING": "CCCc1c(COc2ccc(CCCc3nnn[nH]3)cc2)ccc(C(C)=O)c1O",
    "SYSTEM_UNDER_TEST": "Cysteinyl leukotriene receptor (Cavia porcellus)",
    "-Log IC50": 7.3
  },
  {
    "STRUCTURE_SMILES_STRING": "CCCc1c(COc2cccc(OCc3nn[nH]n3)c2)ccc(C(C)=O)c1O",
    "SYSTEM_UNDER_TEST": "Cysteinyl leukotriene receptor (Cavia porcellus)",
    "-Log IC50": 8
  },
  {
    "STRUCTURE_SMILES_STRING": "CCCc1c(COc2ccc(Cc3nnn[nH]3)cc2)ccc(C(=O)CC)c1O",
    "SYSTEM_UNDER_TEST": "Cysteinyl leukotriene receptor (Cavia porcellus)",
    "-Log IC50": 7
  },
  {
    "STRUCTURE_SMILES_STRING": "CCCc1c(COc2ccccc2Cc2nnn[nH]2)ccc(C(C)=O)c1O",
    "SYSTEM_UNDER_TEST": "Cysteinyl leukotriene receptor (Cavia porcellus)",
    "-Log IC50": 6.2
  },
  {
    "STRUCTURE_SMILES_STRING": "CCCc1c(COCCOc2ccc(-c3nn[nH]n3)cc2)ccc(C(C)=O)c1O",
    "SYSTEM_UNDER_TEST": "Cysteinyl leukotriene receptor (Cavia porcellus)",
    "-Log IC50": 7.3
  },
  {
    "STRUCTURE_SMILES_STRING": "CCCc1c(COCCOc2ccc(Cc3nnn[nH]3)cc2)ccc(C(C)=O)c1O",
    "SYSTEM_UNDER_TEST": "Cysteinyl leukotriene receptor (Cavia porcellus)",
    "-Log IC50": 7
  },
  {
    "STRUCTURE_SMILES_STRING": "CCCc1c(COc2ccc(/C=C/c3nn[nH]n3)cc2)ccc(C(C)=O)c1O",
    "SYSTEM_UNDER_TEST": "Cysteinyl leukotriene receptor (Cavia porcellus)",
    "-Log IC50": 7.4
  }
]

Please examine the following record next.
Q) Identify measured -Log IC50 corresponding to `CCCc1c(COc2cccc(Cc3nnn[nH]3)c2)ccc(C(C)=O)c1O`
A) 7
